Assign %-inhibition of FGFR3(K650M) to each entry below.
Target or test system: panel of more than 300 wild-type and mutant kinases (313 kinase panel) (Homo sapiens, UniProt P22607, K650M)
Sequence (P22607 23-806 K650M): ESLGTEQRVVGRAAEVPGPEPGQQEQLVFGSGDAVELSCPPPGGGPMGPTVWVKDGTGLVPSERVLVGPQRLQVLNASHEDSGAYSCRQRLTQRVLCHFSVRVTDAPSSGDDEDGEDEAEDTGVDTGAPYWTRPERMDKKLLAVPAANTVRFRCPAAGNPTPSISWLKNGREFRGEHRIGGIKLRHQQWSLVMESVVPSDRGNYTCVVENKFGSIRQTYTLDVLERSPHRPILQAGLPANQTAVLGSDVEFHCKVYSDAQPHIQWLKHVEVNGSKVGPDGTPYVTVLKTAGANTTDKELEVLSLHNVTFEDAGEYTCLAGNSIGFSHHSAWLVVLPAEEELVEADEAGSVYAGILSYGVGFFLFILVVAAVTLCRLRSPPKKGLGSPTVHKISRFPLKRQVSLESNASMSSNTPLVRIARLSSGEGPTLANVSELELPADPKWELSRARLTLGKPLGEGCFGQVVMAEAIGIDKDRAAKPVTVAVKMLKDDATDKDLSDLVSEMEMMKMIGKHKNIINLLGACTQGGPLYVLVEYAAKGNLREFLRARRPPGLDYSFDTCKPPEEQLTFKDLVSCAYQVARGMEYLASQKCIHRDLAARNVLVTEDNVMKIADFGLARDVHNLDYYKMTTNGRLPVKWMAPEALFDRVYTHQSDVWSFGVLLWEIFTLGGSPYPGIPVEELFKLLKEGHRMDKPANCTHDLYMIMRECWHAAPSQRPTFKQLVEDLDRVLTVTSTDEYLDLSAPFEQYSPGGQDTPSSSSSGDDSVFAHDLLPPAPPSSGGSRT
Protocol: Kinase profiling in a biochemical assay panel (mobility shift assays and ELISA), %-inhibition at 1 μM; selectivity entropy
Measurement setup: kinase FGFR3(K650M); compound at 1 μM
A number alone suffices; assume %.

# get_value(readout='%-inhibition of FGFR3(K650M)', item= "CO[C@H]1C[C@@H]2CC[C@@H](C)[C@@](O)(O2)C(=O)C(=O)N2CCCC[C@H]2C(=O)O[C@H]([C@H](C)C[C@@H]2CC[C@@H](OCCO)[C@H](OC)C2)CC(=O)[C@H](C)/C=C(\C)[C@@H](O)[C@@H](OC)C(=O)[C@H](C)C[C@H](C)/C=C/C=C/C=C/1C" )
2.71

Also need COc1cc2nccc(Oc3ccc(NC(=O)C4(C(=O)Nc5ccc(F)cc5)CC4)cc3)c2cc1OC [cabozantinib] , thanks.
10

Try the compound "CC(C)(C)c1nc(-c2cccc(NS(=O)(=O)c3c(F)cccc3F)c2F)c(-c2ccnc(N)n2)s1"
7

Next record, please: "CS(=O)(=O)CCNCc1ccc(-c2ccc3ncnc(Nc4ccc(OCc5cccc(F)c5)c(Cl)c4)c3c2)o1"
1.23

Input "Cc1cn(-c2cc(NC(=O)c3ccc(C)c(Nc4nccc(-c5cccnc5)n4)c3)cc(C(F)(F)F)c2)cn1"
-21

Now consider "O=S(=O)(c1cccc2cnccc12)N1CCCNCC1" .
-0.618

Moving on to "CNC(=O)c1cc(Oc2ccc(NC(=O)Nc3ccc(Cl)c(C(F)(F)F)c3)c(F)c2)ccn1"
101

Lookup "CO[C@H]1C[C@@H]2CC[C@@H](C)[C@@](O)(O2)C(=O)C(=O)N2CCCC[C@H]2C(=O)O[C@H]([C@H](C)C[C@@H]2CC[C@@H](OC(=O)C(C)(CO)CO)[C@H](OC)C2)CC(=O)[C@H](C)/C=C(\C)[C@@H](O)[C@@H](OC)C(=O)[C@H](C)C[C@H](C)/C=C/C=C/C=C/1C"
0.626

Quick one: "C[C@@H](Oc1cc(-c2cnn(C3CCNCC3)c2)cnc1N)c1c(Cl)ccc(F)c1Cl"
61

Also "CCN(CC)CCNC(=O)c1c(C)[nH]c(/C=C2\C(=O)Nc3ccc(F)cc32)c1C" , if possible.
97

Repeat for the following compound: "N#CC[C@H](C1CCCC1)n1cc(-c2ncnc3[nH]ccc23)cn1"
16

Then "CCCS(=O)(=O)Nc1ccc(F)c(C(=O)c2c[nH]c3ncc(-c4ccc(Cl)cc4)cc23)c1F" ?
8

Cool, now "Cc1ccc(C(=O)Nc2ccc(CN3CCN(C)CC3)c(C(F)(F)F)c2)cc1C#Cc1cnc2cccnn12"
100

Also "CC(=O)Nc1cccc(-n2c(=O)n(C3CC3)c(=O)c3c(Nc4ccc(I)cc4F)n(C)c(=O)c(C)c32)c1" , if possible.
-0.169
